PROCEDURE SUMMARY: qHTS RealTime-Glo MT Cell Viability Assay in HepG2 cells - 40 hour (AID 1224870); note: nearly all actives have a fitted effect of over 50% in size
EXPERIMENTAL CONTEXT: RealTime-Glo luminescence; series mostly up to 76.8 µM
Records with an inconclusive call do not appear. Activity calls are given as the source filed them. Calls come from the whole dose curve; as a rule, active = well fitted cell-killing curve with a large enough effect in the repeat runs; inconclusive = weak or mixed curves, or effect the other way; inactive = flat fitted curve, though single readings scatter.
TEST READOUT: outcome

See these solved cases before continuing.
CN1C(=O)CC(C)(c2ccccc2)C1=O (stereo unspecified)	inactive
NC(=O)N(O)[C@@H]1C=C[C@H](Oc2cccc(Oc3ccc(F)cc3)c2)C1	inactive
O=C(O)c1cccc(O)c1	inactive
CSc1ccc(Oc2ccc(S(N)(=O)=O)cc2CN(C)C)cc1C	inactive
OC(CCCN1CCCCC1)(c1ccccc1)c1ccccc1	inactive

Enquiry: // fetch outcome given entry C[N+]1(C)CCC(=C(c2ccccc2)c2ccccc2)CC1
Return: inactive

====

TESTED TARGET: Androgen receptor (Homo sapiens) (UniProt P10275)
Sequence (P10275 whole entry, looked up): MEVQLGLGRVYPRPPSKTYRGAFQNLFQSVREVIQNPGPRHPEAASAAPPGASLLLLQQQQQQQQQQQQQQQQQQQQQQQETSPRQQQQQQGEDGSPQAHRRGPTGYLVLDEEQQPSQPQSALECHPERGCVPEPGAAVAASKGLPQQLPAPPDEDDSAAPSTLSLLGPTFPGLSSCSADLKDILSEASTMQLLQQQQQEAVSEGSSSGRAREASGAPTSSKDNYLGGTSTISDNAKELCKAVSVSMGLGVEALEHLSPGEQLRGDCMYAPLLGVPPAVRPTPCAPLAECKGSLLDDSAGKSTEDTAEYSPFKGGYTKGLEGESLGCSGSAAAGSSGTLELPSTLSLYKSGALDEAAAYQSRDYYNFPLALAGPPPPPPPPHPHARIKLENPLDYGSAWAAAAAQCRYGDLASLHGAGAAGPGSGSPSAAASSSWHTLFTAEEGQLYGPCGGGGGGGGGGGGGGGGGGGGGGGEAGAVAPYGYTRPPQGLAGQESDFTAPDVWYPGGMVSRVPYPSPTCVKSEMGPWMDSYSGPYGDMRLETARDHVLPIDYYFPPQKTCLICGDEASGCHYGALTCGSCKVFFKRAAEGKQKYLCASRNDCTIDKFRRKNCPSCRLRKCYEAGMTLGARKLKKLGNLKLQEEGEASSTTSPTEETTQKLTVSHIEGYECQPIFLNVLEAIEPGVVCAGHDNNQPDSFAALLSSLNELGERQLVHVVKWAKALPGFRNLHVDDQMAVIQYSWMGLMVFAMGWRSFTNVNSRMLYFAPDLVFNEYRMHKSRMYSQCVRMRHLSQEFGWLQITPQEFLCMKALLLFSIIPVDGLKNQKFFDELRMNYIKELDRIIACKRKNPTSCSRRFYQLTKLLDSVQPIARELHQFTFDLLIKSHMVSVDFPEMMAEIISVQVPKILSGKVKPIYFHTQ
PROCEDURE SUMMARY: qHTS assay to identify small molecule antagonists of the androgen receptor (AR) signaling pathway using the MDA cell line in the presence of 0.5 nM R1881 (AID 1259243); note: nearly all actives have a fitted effect of over 50% in size
EXPERIMENTAL CONTEXT: MDA-kb2 MMTV-luciferase, R1881 0.5 nM, 16 h; series mostly up to 42.5 µM
Inconclusive results are not listed. Active and inactive are the calls of the source. Calls come from the whole dose curve; as a rule, active = well fitted inhibition curve with a large enough effect in the repeat runs; inconclusive = weak or mixed curves; inactive = no such curve, though single readings can be large or run the other way.
Form entry, call: pick from active, inactive

Enquiry: Each molecule tested received a call. Report the one for CCOC(=O)C(C)Oc1ccc(Oc2nc3ccc(Cl)cc3o2)cc1 (configuration not stated) .
Return: inactive

Enquiry: Hi, sorry to bother you, what did the test record for COc1cc2c(cc1OC)-c1cc(=Nc3c(C)cc(C)cc3C)n(C)c(=O)n1CC2 ?
Return: inactive

Enquiry: Per the records of this test, what outcome belongs to O=C(CCC1CCN(Cc2ccccc2)CC1)c1ccc2c(c1)NCCCC2 ?
Return: active

Enquiry: For this molecule, state the assay outcome: NCC1CCCC(CN)C1 (configuration not stated)
Return: inactive

Enquiry: For this molecule, state the assay outcome: COC(=O)c1cc(Cl)ccc1NS(=O)(=O)C(F)(F)F
Return: inactive

Enquiry: Any idea what this test logged for CCCOC(=O)c1ccc(N)cc1 ?
Return: inactive

Enquiry: Give the logged outcome of this assay for the following molecule: CNC(=S)NC
Return: inactive

====

TESTED TARGET: Cytochrome P450 3A4 (Homo sapiens)
PROCEDURE SUMMARY: Cytochrome P450 Family 3 Subfamily A Member 4 (CYP3A4) small molecule antagonists: luciferase reporter qHTS assay (AID 1671201); note: nearly all actives have a fitted effect of over 50% in size
EXPERIMENTAL CONTEXT: P450-Glo CYP3A4 enzyme, luciferin luminescence, 1 h; series mostly up to 115 µM
Inconclusive results are not listed. Calls of active or inactive are those of the source. The call rests on the fitted dose curve; in most records, active means well fitted inhibition curve with a large enough effect in the repeat runs; inconclusive means weak or mixed curves; inactive means no such curve, though single readings can be large or run the other way.
Can you answer with just one of these options? YES = active, NO = inactive

Enquiry: Recorded test call requested for COc1cc2[nH]c(=O)[nH]c(=O)c2cc1OC
Return: NO

Enquiry: What was the test verdict on CCCCCCCCCCCC[N+](C)(C)CC(=O)[O-] ?
Return: NO

Enquiry: // param item: CSc1ccc(Oc2ccc(S(N)(=O)=O)cc2CN(C)C)cc1C ; yields the recorded call
Return: NO

Enquiry: In this assay, the call recorded for CC(COc1ccc(C(C)(C)C)cc1)OS(=O)OCCCl (stereo unspecified) was what?
Return: NO

Enquiry: How was CCOC(=O)N1CCC(n2c(=O)[nH]c3cc(Cl)ccc32)CC1 classified in this test?
Return: NO

Enquiry: Call for entry CCn1nc(C)c2c1C(=O)NCC(c1ccc(O)cc1)=N2 :
Return: YES

Numbers sourced from PubChem BioAssay (Tox21).
